B1: glmS ribozyme (parent)
chain: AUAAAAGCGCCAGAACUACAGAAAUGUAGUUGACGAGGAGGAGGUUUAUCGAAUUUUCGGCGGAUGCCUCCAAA

# Variants of: B1
# Test Details: self-cleavage kobs at 40 uM GlcN6P; higher = faster cleavage; RNA array
# Test Parameters: with glucosamine-6-phosphate
Variants at the floor of the assay were thinned out.
Assignment: determine reported self-cleavage kobs at 40 uM GlcN6P for the given variants.

IN: Report self-cleavage kobs at 40 uM GlcN6P, nothing else, for this variant: AUAAAAGCGCCAGAACUACAGAAAUGUAGUUGACGAGGGGGAGGUUUUUCGAAUUUUGGGCGGAUGCCUCCAAA [A39G A48U C58G]
OUT: < 1e-05 s⁻¹

IN: Report self-cleavage kobs at 40 uM GlcN6P, nothing else, for this variant: AUAAAAGCGCCAGAACUACAGAAAUGUAGUUGACGUGGAGGAGGUUUAUCGAAUGUUCGGCGAAUGCCUCAAAA [A36U U55G G63A C71A]
OUT: < 1e-05 s⁻¹

IN: Report self-cleavage kobs at 40 uM GlcN6P, nothing else, for this variant: AUAAAAGCGCCAGAACUACAGAAAUGUAGUUGACGAGGAGGAGGUGUAUCGAAUUUUCGGCGGAUGCCUCUAAA [U46G C71U]
OUT: 0.00018 s⁻¹

IN: Report self-cleavage kobs at 40 uM GlcN6P, nothing else, for this variant: AUAAAAGCGCUAGAACUACAGAAAUGUAGUUGACGAGGAGGAGGUUUAUCGAAUUUUCGGCCGAUGCCUCCAAA [C11U G62C]
OUT: < 1e-05 s⁻¹

IN: Report self-cleavage kobs at 40 uM GlcN6P, nothing else, for this variant: AUAAAAGCGCCAGAACUACAGAAAUGUAGUUAACGAGGAGGAGGUUUAUUGAAUUUUCGGCGGAUGCCUCCAAA [G32A C50U]
OUT: < 1e-05 s⁻¹

IN: Report self-cleavage kobs at 40 uM GlcN6P, nothing else, for this variant: AUAAAAGCGCCUGAACUACAGAAAUGUAGUUGACGAGGUGGAGGUUUAUCGAAUUUUCGGCGGAUGCCUCCAAA [A12U A39U]
OUT: 0.00122 s⁻¹

IN: Report self-cleavage kobs at 40 uM GlcN6P, nothing else, for this variant: AUAAAAGCGCCAGAACUACAGAAAUGUAGUAGACGAGGAGGAGGUUUAUCGAAUCUUCGGCGCAUGGCUCCAAA [U31A U55C G63C C67G]
OUT: < 1e-05 s⁻¹

IN: Report self-cleavage kobs at 40 uM GlcN6P, nothing else, for this variant: AUAAAAGCGCCAGAUCUACAGAAAUGUAGUUGACGAGGCGGAGGUUUAUCGAAUUUUCGGCGGAUGCCUCCAAA [A15U A39C]
OUT: 3.4e-05 s⁻¹

IN: Report self-cleavage kobs at 40 uM GlcN6P, nothing else, for this variant: AUAAAAGCGCCAGAACUACAGAAAUGUAGUUGACGAGGAGGAGGUUUACCGAAUUUUCGGCGGAUGCCUCAAAA [U49C C71A]
OUT: < 1e-05 s⁻¹

IN: Report self-cleavage kobs at 40 uM GlcN6P, nothing else, for this variant: AUAAAAGCGCCAGAACUACAGAAAUGUAAUUGACGAGGAGGAGGUUUAUCGAAGUUUCGGCGGAUGCCUCCAAA [G29A U54G]
OUT: 5.97e-05 s⁻¹

IN: Report self-cleavage kobs at 40 uM GlcN6P, nothing else, for this variant: AUAAAAGCGCCCGAACUACAGAAAUGUAGUUGACGAGGAGGUGGUUUAUCGAAUUUUUGGCGGAUGCCUCCAAA [A12C A42U C58U]
OUT: < 1e-05 s⁻¹
